measurement.description: Metabolic stability with pooled human liver microsomes
test.context: both, human, microsomes, pH 7.4
measured.parameter: CLint scaled at 1 µM

Problem: Annotate the compound NCCCn1c2c(c3ccc(N)cc3c1=O)C(=O)c1ccccc1-2 [Compound 3] with its measured CLint scaled at 1 µM.
Result: 5.33 mL/min/kg
